# TARGET_OR_SYSTEM: T1, interferon-alpha receptor (type I interferon receptor comprising receptor subunits IFNAR-2 and IFNAR-1) (human, UniProt P17181 28-557; P48551 27-515)
# T1 sequence (looked up) 1: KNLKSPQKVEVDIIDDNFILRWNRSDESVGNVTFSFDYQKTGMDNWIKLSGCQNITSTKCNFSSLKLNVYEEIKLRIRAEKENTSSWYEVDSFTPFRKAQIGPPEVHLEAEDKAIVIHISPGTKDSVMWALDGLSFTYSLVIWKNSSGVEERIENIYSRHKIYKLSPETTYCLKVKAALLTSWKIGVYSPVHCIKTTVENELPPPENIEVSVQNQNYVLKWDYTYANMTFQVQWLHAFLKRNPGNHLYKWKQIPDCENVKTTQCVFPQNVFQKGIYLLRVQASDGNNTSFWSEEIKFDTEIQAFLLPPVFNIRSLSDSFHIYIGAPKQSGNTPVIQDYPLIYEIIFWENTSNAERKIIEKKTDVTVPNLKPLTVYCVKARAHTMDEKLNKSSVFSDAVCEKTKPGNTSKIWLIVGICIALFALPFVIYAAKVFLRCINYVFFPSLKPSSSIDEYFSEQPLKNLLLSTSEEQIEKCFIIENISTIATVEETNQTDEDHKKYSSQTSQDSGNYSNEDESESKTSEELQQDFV
# T1 sequence (looked up) 2: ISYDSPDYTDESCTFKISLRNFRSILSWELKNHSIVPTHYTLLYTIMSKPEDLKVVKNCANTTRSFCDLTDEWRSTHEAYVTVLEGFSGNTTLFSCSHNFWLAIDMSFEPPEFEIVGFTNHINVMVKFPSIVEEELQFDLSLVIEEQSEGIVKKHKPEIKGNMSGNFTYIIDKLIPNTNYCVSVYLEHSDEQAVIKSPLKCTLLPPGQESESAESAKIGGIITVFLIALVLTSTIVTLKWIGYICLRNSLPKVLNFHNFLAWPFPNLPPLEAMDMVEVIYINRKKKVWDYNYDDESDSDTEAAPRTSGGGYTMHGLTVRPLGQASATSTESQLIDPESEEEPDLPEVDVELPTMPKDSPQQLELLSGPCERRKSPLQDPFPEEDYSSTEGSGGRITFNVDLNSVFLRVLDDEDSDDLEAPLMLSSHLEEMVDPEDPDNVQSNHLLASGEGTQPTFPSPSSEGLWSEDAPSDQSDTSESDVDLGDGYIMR
# PROCEDURE_TEXT: cell-based or functional assay
MEASURED_PROPERTY: HuH7/EMCV Antiviral activity relative to huIFN-alpha 2b

INPUT: Quick one: HuH7/EMCV Antiviral activity relative to huIFN-alpha 2b for 14epi33 (ligand) CDLPQTHSLGHRRTMMLLAQMRRISLFSCLKDRHDFRFPQEEFDGNHFQKVPAISLFYEMMQQTFNLFSTKDSSAAWDETLLEKFYIELFQQMNDLEACVMQEVGVEETPLMKEDSILAVRKYFQRITLYLTEKKYSPCAWEVVRAEIMRSFSFSTNLQESLRSKE ?
OUTPUT: > 8 fold

INPUT: Quick one: HuH7/EMCV Antiviral activity relative to huIFN-alpha 2b for 14epi32 (ligand) CDLPQTHSLGHRRTMMLLAQMRRISLFSCLKDRHDFRFPQEEFDGNHLQKVPAISLFYEMMQQTFNLFSTKDSSAAWDETLLEKFYIELFQQMNDLEACVMQEVGVEETPLMKEDSILAVRKYFQRITLYLTEKKYSPCAWEVVRAEIMRSFSFSTNLQESLRSKE ?
OUTPUT: > 8 fold

INPUT: Quick one: HuH7/EMCV Antiviral activity relative to huIFN-alpha 2b for 25epi19 (ligand) CDLPQTHSLSNRRTLMLMAQMRRISPFSCLKDRHDFGFPEEEFDGHQAQKVQAIFLLYELIQQTFNLFSTKDSSAAWDETLLEKFYIELFQQMNNLEACVIQEVGVEEIALMNVDSILAVRKYFRRITLYLTEKKYSPCAWEVVRAEIMRSFSFSTNLQESLRSKE ?
OUTPUT: > 8 fold
